Test system: ASPC-1 tumor-bearing mice
Assay: Biodistribution of radionuclide labeled complexes in ASPC-1 tumor-bearing mice
Format: in vivo, BALB/c nude mice
Settings: Femur, 24 h
Method: The BALB/c nude mice (Charles River, Beijing) were utilized to establish the xenografted model for biodistribution study. […] At different time points after the administration, the mice treated with each compound were euthanized. The tissues and organs of the animals in each group were collected, excised, weighed, and analyzed in a PerkinElmer 2480 WIZARD2γ counter, and the percent injected dose (% ID) and % ID/g of each organ or tissue were calculated.
MEASURED_ATTRIBUTE: % ID/g (24 h) Femur (% ID/g)

I: COc1cccc(OC)c1-c1cc(C(=O)NC2(C(=O)O)C3CC4CC(C3)CC2C4)nn1-c1ccc(NCCCN(C)CCCNC(=O)CN2CCN(CC(=O)[O-])CCN(CC(=O)[O-])CCN(CC(=O)[O-])CC2)cc1C(C)C.[177Lu+3] (stereo not drawn) [^177Lu-I-2]
II: COc1cccc(OC)c1-c1cc(C(=O)NC2(C(=O)O)C3CC4CC(C3)CC2C4)nn1-c1ccc(N(C)CCCN(C)CCCN(C)C(=O)CN2CCN(CC(=O)[O-])CCN(CC(=O)[O-])CCN(CC(=O)[O-])CC2)cc1C(C)C.[177Lu+3] (stereo not drawn) [^177Lu-I-1]
III: COc1cccc(OC)c1-c1cc(C(=O)NC2(C(=O)O)C3CC4CC(C3)CC2C4)nn1-c1ccc(OCCCN(C)CCCN(C)C(=O)CN2CCN(CC(=O)[O-])CCN(CC(=O)[O-])CCN(CC(=O)[O-])CC2)cc1C(C)C.[177Lu+3] (stereo not drawn) [^177Lu-I-7]
Sort these compounds on % ID/g (24 h) Femur so the largest reading comes first. Output spec: labels arranged per the requested ranking.
I, II, III

----------
tested on: ASPC-1 tumor-bearing mice; assay: Biodistribution of radionuclide labeled complexes in ASPC-1 tumor-bearing mice; type: in vivo, BALB/c nude mice; settings: Blood, 4 h
MEASURED_ATTRIBUTE: % ID/g (4 h) Blood (% ID/g)
Give a bare numeral; the unit % ID/g is implied.

1) COc1cccc(OC)c1-c1cc(C(=O)NC2(C(=O)O)C3CC4CC(C3)CC2C4)nn1-c1ccc(C(=O)N(C)CCCN(C)CCCN(C)C(=O)CN2CCN(CC(=O)[O-])CCN(CC(=O)[O-])CCN(CC(=O)[O-])CC2)cc1C(C)C.[177Lu+3] (centres unmarked) [^177Lu-C-2, reference compound] :: 4.46

// below: % ID/g (4 h) Blood requested for another compound
Find the recorded % ID/g (4 h) Blood belonging to COc1cccc(OC)c1-c1cc(C(=O)NC2(C(=O)O)C3CC4CC(C3)CC2C4)nn1-c1ccc(N(CCCN(C)C)C(=O)COCCOCCNC(=O)CN2CCN(CC(=O)[O-])CCN(CC(=O)[O-])CCN(CC(=O)[O-])CC2)cc1C(C)C.[177Lu+3] (centres unmarked) [^177Lu-I-6] and report it.
0.04

----------
system: ASPC-1 tumor-bearing mice; assay: Biodistribution of radionuclide labeled complexes in ASPC-1 tumor-bearing mice; type: in vivo, BALB/c nude mice; settings: Pancreas, 4 h
MEASURED_ATTRIBUTE: % ID/g (4 h) Pancreas (% ID/g)

1. COc1cccc(OC)c1-c1cc(C(=O)NC2(C(=O)O)C3CC4CC(C3)CC2C4)nn1-c1ccc(NCCOCCOCCNC(=O)CN2CCN(CC(=O)[O-])CCN(CC(=O)[O-])CCN(CC(=O)[O-])CC2)cc1C(C)C.[177Lu+3] (stereo not shown) [^177Lu-I-10] :: 0.07
2. COc1cccc(OC)c1-c1cc(C(=O)NC2(C(=O)O)C3CC4CC(C3)CC2C4)nn1-c1ccc(N(C)CCCN(C)CCCN(C)C(=O)CN2CCN(CC(=O)[O-])CCN(CC(=O)[O-])CCN(CC(=O)[O-])CC2)cc1C(C)C.[177Lu+3] (stereo not shown) [^177Lu-I-1] :: 0.41
3. COc1cccc(OC)c1-c1cc(C(=O)NC2(C(=O)O)C3CC4CC(C3)CC2C4)nn1-c1ccc(C(=O)N(C)CCCN(C)CCCN(C)C(=O)CN2CCN(CC(=O)[O-])CCN(CC(=O)[O-])CCN(CC(=O)[O-])CC2)cc1C(C)C.[177Lu+3] (stereo not shown) [^177Lu-C-2, reference compound] :: 0.27

1: COc1cccc(OC)c1-c1cc(C(=O)NC2(C(=O)O)C3CC4CC(C3)CC2C4)nn1-c1ccc(SCCCN(C)CCCN(C)C(=O)CN2CCN(CC(=O)[O-])CCN(CC(=O)[O-])CCN(CC(=O)[O-])CC2)cc1C(C)C.[177Lu+3] (stereo not shown) [^177Lu-I-8]
2: COc1cccc(OC)c1-c1cc(C(=O)NC2(C(=O)O)C3CC4CC(C3)CC2C4)nn1-c1ccc(N(CCCN(C)C)C(=O)COCCOCCNC(=O)CN2CCN(CC(=O)[O-])CCN(CC(=O)[O-])CCN(CC(=O)[O-])CC2)cc1C(C)C.[177Lu+3] (stereo not shown) [^177Lu-I-6]
3: COc1cccc(OC)c1-c1cc(C(=O)NC2(C(=O)O)C3CC4CC(C3)CC2C4)nn1-c1ccc(OCCCN(C)CCCN(C)C(=O)CN2CCN(CC(=O)[O-])CCN(CC(=O)[O-])CCN(CC(=O)[O-])CC2)cc1C(C)C.[177Lu+3] (stereo not shown) [^177Lu-I-7]
Parameters: sort_field (% ID/g (4 h) Pancreas), sort_dir (desc). Output spec: labels arranged per the requested ranking.
1, 3, 2
(1: 0.53 % ID/g, 3: 0.24 % ID/g, 2: 0.06 % ID/g)

----------
molecular target: human NTSR-1 (Homo sapiens (Human)); assay: radioligand competitive binding assay using ^177Lu labeled C-1 as reference radioligand; conditions: Nonlin fit, single assay, HT-29 cells; read-out: LogIC50 Mean (converted)
Sequence (P30989 whole entry): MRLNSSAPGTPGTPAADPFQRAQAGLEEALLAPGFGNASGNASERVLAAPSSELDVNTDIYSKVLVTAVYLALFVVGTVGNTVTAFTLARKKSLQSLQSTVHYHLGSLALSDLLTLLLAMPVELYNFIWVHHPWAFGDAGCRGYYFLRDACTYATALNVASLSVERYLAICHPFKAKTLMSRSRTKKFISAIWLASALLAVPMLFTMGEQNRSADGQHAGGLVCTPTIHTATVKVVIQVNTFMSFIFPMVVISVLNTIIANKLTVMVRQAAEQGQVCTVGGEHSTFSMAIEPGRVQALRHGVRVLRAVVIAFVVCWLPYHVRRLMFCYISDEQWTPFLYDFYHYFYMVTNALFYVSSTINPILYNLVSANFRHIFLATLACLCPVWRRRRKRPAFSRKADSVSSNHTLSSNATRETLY
MEASURED_ATTRIBUTE: IC50 (nM)

Check out these entries, answers already filled in.
1. CC(=O)N[C@@H](CCCCNC(=O)CN1CCN(CC(=O)O)CCN(CC(=O)O)CCN(CC(=O)O)CC1)C(=O)N1CCC[C@H]1C(=O)N(C)[C@@H](CCCNC(=N)N)C(=O)N[C@@H](CCCNC(=N)N)C(=O)N1CCC[C@H]1C(=O)N[C@@H](Cc1ccc(O)cc1)C(=O)N[C@H](C(=O)N[C@@H](CC(C)C)C(=O)O)C(C)(C)C [Compound C-1, reference compound] :: 40.4
2. COc1cccc(OC)c1-c1cc(C(=O)NC2(C(=O)O)C3CC4CC(C3)CC2C4)nn1-c1ccc(NCCCN(C)CCCNC(=O)CN2CCN(CC(=O)O)CCN(CC(=O)O)CCN(CC(=O)O)CC2)cc1C(C)C (centres unmarked) :: 0.558

A: COc1cccc(OC)c1-c1cc(C(=O)NC2(C(=O)O)C3CC4CC(C3)CC2C4)nn1-c1ccc(C(=O)N(C)CCCN(C)C)cc1C(C)C (centres unmarked) [Compound C-3, reference compound]
B: COc1cccc(OC)c1-c1cc(C(=O)NC2(C(=O)O)C3CC4CC(C3)CC2C4)nn1-c1ccc(N(C)CCCN(C)CCCN(C)C(=O)CN2CCN(CC(=O)O)CCN(CC(=O)O)CCN(CC(=O)O)CC2)cc1C(C)C (centres unmarked)
C: COc1cccc(OC)c1-c1cc(C(=O)NC2(C(=O)O)C3CC4CC(C3)CC2C4)nn1-c1ccc(NCCCCN(C)C)cc1C(C)C (centres unmarked)
Rank items: key IC50, increasing. Output spec: labels arranged per the requested ranking.
C, B, A
(C: 0.158 nM, B: 0.465 nM, A: 2.05 nM)

----------
tested on: ASPC-1 tumor-bearing mice; assay: Biodistribution of radionuclide labeled complexes in ASPC-1 tumor-bearing mice; assay type: in vivo, BALB/c nude mice; conditions: Liver, 1 h
MEASURED_ATTRIBUTE: % ID/g (1 h) Liver (% ID/g)

Check out these entries, answers already filled in.
1. COc1cccc(OC)c1-c1cc(C(=O)NC2(C(=O)O)C3CC4CC(C3)CC2C4)nn1-c1ccc(C(=O)N(C)CCCN(C)CCCN(C)C(=O)CN2CCN(CC(=O)[O-])CCN(CC(=O)[O-])CCN(CC(=O)[O-])CC2)cc1C(C)C.[177Lu+3] (stereo not shown) [^177Lu-C-2, reference compound] :: 2.01
2. COc1cccc(OC)c1-c1cc(C(=O)NC2(C(=O)O)C3CC4CC(C3)CC2C4)nn1-c1ccc(C(=O)N(CCCNC(=O)CN2CCN(CC(=O)[O-])CCN(CC(=O)[O-])CCN(CC(=O)[O-])CC2)CCCN(C)C)cc1C(C)C.[177Lu+3] (stereo not shown) [^177Lu-C-5, reference compound] :: 0.84

1: COc1cccc(OC)c1-c1cc(C(=O)NC2(C(=O)O)C3CC4CC(C3)CC2C4)nn1-c1ccc(OCCCN(C)CCCN(C)C(=O)CN2CCN(CC(=O)[O-])CCN(CC(=O)[O-])CCN(CC(=O)[O-])CC2)cc1C(C)C.[177Lu+3] (stereo not shown) [^177Lu-I-7]
2: COc1cccc(OC)c1-c1cc(C(=O)NC2(C(=O)O)C3CC4CC(C3)CC2C4)nn1-c1ccc(N(CCCN(C)C)C(=O)COCCOCCNC(=O)CN2CCN(CC(=O)[O-])CCN(CC(=O)[O-])CCN(CC(=O)[O-])CC2)cc1C(C)C.[177Lu+3] (stereo not shown) [^177Lu-I-6]
Compare 1 and 2 by numeric % ID/g (1 h) Liver and name the larger one. Indicate your choice by writing its label.
1
(1: 3.93 % ID/g, 2: 0.51 % ID/g)
